- Assay Target: T1, human TIGIT expressed on cells (stably transfected Jurkat cells) (human, UniProt Q495A1 22-244)
- T1 construct: Also used here for TIGIT on primary T cells in the MLR; also called h-TIGIT; T cell immunoreceptor with Ig and ITIM domains
- T1 sequence: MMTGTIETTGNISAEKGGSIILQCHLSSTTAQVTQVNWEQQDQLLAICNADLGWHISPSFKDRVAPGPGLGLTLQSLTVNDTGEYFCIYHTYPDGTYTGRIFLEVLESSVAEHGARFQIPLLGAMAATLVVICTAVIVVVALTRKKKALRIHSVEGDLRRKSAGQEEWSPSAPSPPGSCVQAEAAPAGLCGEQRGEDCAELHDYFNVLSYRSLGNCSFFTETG
- Assay Details: flow cytometry on h-TIGIT transfected Jurkat cells, anti-human IgG Fc Alexa Fluor 488

{"Binder": "3G6 bivalent VHH antibody (Fc fusion, not shown: small tags and cut ends) QVQLVESGGGLVQAGGSLSLSCAASGSIFGISVMGWYRQAPGEQRDLVATLTRAGLTTYGDSVKGRFSISRDSAKNTVYLQMNNLKPEDTAVYYCHANIMESAASTFGRYWGQGTQVTVSS", "EC50 (read off the curve)": "~0.8 nM"}
{"Binder": "1C12 bivalent VHH antibody (1C12-chimeric) (Fc fusion, Llama VHH of 1C12 with human IgG1 CH2 and CH3; also called chimeric parental clone; not shown: human IgG1 CH2 and CH3 domains) QVQLVESGGGLVQTGDSLRLSCAASSRIFSRYGMGWFRQAPGKEREFVAAISWNGASTTYTDSVKGRFTISRDSAENTTYLQINSLRPEDTAVYYCAADPWGAVKLGTAEYEYWGQGTQVTVSS", "EC50 (read off the curve)": "~0.04 nM"}
{"Binder": "13H11 bivalent VHH antibody (Fc fusion, not shown: small tags and cut ends) QVQLVESGGGLVQAGGSLRLSCAASGLTFSMYAMGWFRQGPGKERESVAAISSDGRFTYYAASVKGRFTISKDNAKSAAFLQMNSLKPEDTAVYYCAARDSGSGYYSRAQWYDYWGQGTQVTVSS", "EC50 (read off the curve)": "~0.2 nM"}
{"Binder": "15A5 bivalent VHH antibody (Fc fusion, not shown: small tags and cut ends) QVQLVESGGGLVQAGGSLRLSCAASERTFSSFAMGWFRQAPGKEREVVAAIDPSGRYIYYKDSVKGRFTMSRDNAKSTVYLQMNSLKPDDTARYYCAARIRGEGYYTRSSFYHYWGQGTQVTVSS", "EC50 (read off the curve)": "~0.06 nM"}
{"Binder": "1G1 bivalent VHH antibody (1G1-chimeric) (Fc fusion, Llama VHH of 1G1 with human IgG1 CH2 and CH3; also called chimeric parental clone; not shown: human IgG1 CH2 and CH3 domains) QVQLVESGGGLVQAGDSLRLSCVASGPSFSSYPMGWFRQGPGKERESVAAISSDGRFTYYAASVKGRFTISKDNAKSAAFLQMNSLKPEDTAVYYCAARDSGSGYYSRAQWYDYWGQGTLVTVSS", "EC50 (read off the curve)": "~0.09 nM"}
